# System: HL-60(TB) leukemia
# measurementNotes: NCI tumour cell line growth inhibition, 48 h
Returns T if the recorded TGI is greater than or equal to 20 µM, and F otherwise.

compound="COCC(=O)OC1CCn2c1nc1c2C(=O)C(C)=C(NC(C)=O)C1=N (configuration not stated)" labelvalue=F
compound="O=C1C2C(C(=O)N1c1ccccc1)C1(c3ccccc3)OC2(c2ccccc2)c2ccccc21 (configuration not stated)" labelvalue=T
compound=CCN(CC)CCCNc1nc2ccccc2c2c(=O)c3cc(Cl)ccc3sc12 labelvalue=T
compound=O=C1CSC(=S)N1Cc1cccnc1 labelvalue=T
compound=N#Cc1c(-c2ccc(Cl)cc2)c(-c2ccc(Cl)cc2)nn(CCOC(=O)CCC(=O)O)c1=O labelvalue=F
compound=CCCC(=O)Nc1cc([N+](=O)[O-])c([N+](=O)[O-])cc1OC labelvalue=T
compound="CC(=O)OC1(C#N)CC2OC1C1C2N1C(=O)OC(C)(C)C (configuration not stated)" labelvalue=T
